- assay-system: Nuclear receptor subfamily 4 group A member 2 (Homo sapiens)
- Sequence (P43354 whole entry, the tested form may be a part): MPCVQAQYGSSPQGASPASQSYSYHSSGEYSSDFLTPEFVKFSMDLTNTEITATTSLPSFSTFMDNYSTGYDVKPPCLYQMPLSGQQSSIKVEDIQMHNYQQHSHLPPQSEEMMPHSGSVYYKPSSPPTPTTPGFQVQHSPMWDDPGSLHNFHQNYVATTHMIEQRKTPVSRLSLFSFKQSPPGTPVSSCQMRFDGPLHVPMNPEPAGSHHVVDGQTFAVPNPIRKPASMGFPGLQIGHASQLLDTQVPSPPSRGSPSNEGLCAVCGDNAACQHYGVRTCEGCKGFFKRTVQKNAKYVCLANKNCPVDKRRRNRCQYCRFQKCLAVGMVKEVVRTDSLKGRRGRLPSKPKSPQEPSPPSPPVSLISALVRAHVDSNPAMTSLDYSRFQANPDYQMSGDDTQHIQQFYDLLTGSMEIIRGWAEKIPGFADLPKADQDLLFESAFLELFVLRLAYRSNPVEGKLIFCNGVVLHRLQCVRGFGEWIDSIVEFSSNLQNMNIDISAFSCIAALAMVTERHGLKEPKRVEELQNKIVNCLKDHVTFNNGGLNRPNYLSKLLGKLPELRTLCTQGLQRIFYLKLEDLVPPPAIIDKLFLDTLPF
- test-summary: Inverse agonist activity at Gal4-fused human […] Nurr1 LBD transfected in HEK293T cells assessed as suppression of Nurr1 activation incubated for 16 hrs by firefly/renilla based Dual-Glo luciferase assay
pIC50: −log10 of the molar value.
readout-kind: pIC50

[Q] Recorded pIC50 of Cc1cccc(-c2oc(CCC(=O)O)nc2-c2ccccc2)c1 , please.
[A] < 4.30

----------
- assay-system: Nuclear receptor subfamily 4 group A member 3 (Homo sapiens, UniProt Q92570)
- Sequence (Q92570 whole entry, the tested form may be a part): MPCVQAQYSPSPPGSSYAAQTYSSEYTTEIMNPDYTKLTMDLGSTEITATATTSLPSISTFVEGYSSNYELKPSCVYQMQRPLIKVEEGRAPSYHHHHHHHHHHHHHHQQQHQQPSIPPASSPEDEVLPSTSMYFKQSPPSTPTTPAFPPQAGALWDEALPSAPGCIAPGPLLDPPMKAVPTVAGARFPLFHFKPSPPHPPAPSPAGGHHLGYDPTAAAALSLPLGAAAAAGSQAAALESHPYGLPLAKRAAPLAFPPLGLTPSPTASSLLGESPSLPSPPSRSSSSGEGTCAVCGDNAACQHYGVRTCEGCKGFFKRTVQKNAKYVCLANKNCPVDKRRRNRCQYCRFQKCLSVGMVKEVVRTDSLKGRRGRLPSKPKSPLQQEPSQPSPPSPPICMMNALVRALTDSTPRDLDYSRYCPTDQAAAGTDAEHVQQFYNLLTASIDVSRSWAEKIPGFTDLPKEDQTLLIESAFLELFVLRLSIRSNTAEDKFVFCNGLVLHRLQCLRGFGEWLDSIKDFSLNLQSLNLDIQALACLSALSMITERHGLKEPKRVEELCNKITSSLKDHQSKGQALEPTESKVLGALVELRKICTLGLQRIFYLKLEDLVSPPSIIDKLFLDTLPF
- test-summary: Inverse agonist activity at human NOR-1 (393 to 626 residues) transfected in HEK293T cells incubated for 16 hrs by firefly/renilla based Dual-Glo luciferase assay
# Lookup of reported pIC50 keyed by entry
On this scale, pIC50 is minus log10 of a concentration expressed in M (mol/L).

[
  {
    "compound": "CN(C)C(=O)CCc1nc(-c2ccccc2)c(-c2ccccc2Cl)o1",
    "assay-system": "Nuclear receptor subfamily 4 group A member 3 (Homo sapiens, UniProt Q92570)",
    "pIC50": 4.54
  }
]

[Q] Recorded pIC50 of O=C(O)/C=C/c1nc(-c2ccccc2)c(-c2ccccc2)o1 , please.
[A] 5.42

----------
- test-summary: in vitro
- protocol-conditions: male, Sprague-Dawley, rat, liver microsomes
readout-kind: half-life at 1 h, 10 µM (min)
# output: bare number, implied unit min

[
  {
    "compound": "CC(C)NCC(O)COc1cccc2ccccc12 (configuration not stated) [PROPRANOLOL]",
    "readout-kind": "half-life at 1 h, 10 µM",
    "assay-result": 64
  }
]

[Q] Recorded half-life at 1 h, 10 µM of CN(C)C(=O)/C=C/c1nc(-c2ccccc2)c(-c2ccccc2)o1 , please.
[A] 30
